Attribution: PubChem BioAssay AID686971

- Assay Method Text: qHTS for induction of synthetic lethality in tumor cells producing 2HG: qHTS for the HT-1080-IDH1KD cell line
- Condition Context: HT-1080 IDH1 knockdown viability, ATP luminescence, 48 h; series mostly up to 46.1 µM
About 7,500 (2.1%) of roughly 360,000 compounds were called active. Another 8% or so got no clear call; they are omitted. The sample holds actives, similar compounds and a random draw of the others, so the mix is not that of the screen.
Reported Metric: outcome

Ask: For O=C(Nc1cccc(-c2cscn2)c1)C1CCN(Cc2ccsc2)CC1 , what is its reported outcome?
Reply: inactive

Ask: One more compound: CC(=O)c1cccc(NC(=S)N2CCCC2)c1
Reply: inactive

Ask: One more compound: COc1ccc(OC)c(NC(=O)C2(C)CCN2C(=O)Cc2ccccc2)c1 (stereo not drawn)
Reply: inactive

====

- Assay Method Text: qHTS for induction of synthetic lethality in tumor cells producing 2HG: qHTS for the HT-1080-IDH1KD cell line
- Condition Context: HT-1080 IDH1 knockdown viability, ATP luminescence, 48 h; series mostly up to 46.1 µM
The campaign covered roughly 360,000 compounds. About 7,500 (2.1%) were called active. About 8% were inconclusive and are not listed. Calls come from the whole dose curve; as a rule, active = well fitted cell-killing curve with a large enough effect; inconclusive = small, poorly fitted or top-dose-only effect, or effect the other way, or another doubt; inactive = no such curve, though single readings can be large or run the other way. The sample as a whole holds a higher share of actives than the screen did.
Your response should consist of one outcome taken from yes (1) (active), no (0) (inactive)

Ask: For this molecule, state the assay outcome: C=CCn1c(CC(=O)Nc2cccc(OC)c2)nnc1SCC(=O)NC1CCCCC1
Reply: no (0)

Ask: One more molecule: Cc1ccc(F)c(S(=O)(=O)NC(=O)C2(C)CCN2C(=O)c2ccco2)c1 (stereo unspecified)
Reply: no (0)

Ask: One more molecule: O=C(Nc1ccncc1)c1ccc(Cl)c([N+](=O)[O-])c1
Reply: no (0)

Further cases:
Ask: For this molecule, state the assay outcome: CCOC(=O)CSC1=C(C#N)C(c2sccc2C)CC(=O)N1 (stereo unspecified)
Reply: yes (1)

Ask: One more molecule: O=C(/C=C/c1ccc(Cl)c([N+](=O)[O-])c1)c1ccc(O)cc1
Reply: yes (1)

Ask: One more molecule: Nn1cnnc1N/N=C/c1cc([N+](=O)[O-])c(Cl)cc1Cl
Reply: no (0)

Ask: One more molecule: COC(=O)CSC1=C(C#N)C(c2ccccc2OC)C(C(=O)OC)C(=O)N1 (stereo unspecified)
Reply: no (0)

Ask: One more molecule: COCc1[nH]nc2c1C(C1C=CCCC1)C(C#N)=C(N)O2 (stereo unspecified)
Reply: yes (1)

Ask: One more molecule: CNC(=O)C[C@H]1C(=O)N(Cc2ccccc2)C[C@@H]1CSC
Reply: no (0)

Ask: One more molecule: COc1cc(C(=O)N2CCOC23CCN(Cc2ccccc2)CC3)cc(OC)c1OC
Reply: no (0)

Ask: One more molecule: O=C(Nc1ccc2c(c1)CCC2)c1cccc(S(=O)(=O)N2CCN(c3ccc(F)cc3)CC2)c1
Reply: no (0)

====

- Assay Method Text: qHTS for induction of synthetic lethality in tumor cells producing 2HG: qHTS for the HT-1080-IDH1KD cell line
- Condition Context: HT-1080 IDH1 knockdown viability, ATP luminescence, 48 h; series mostly up to 46.1 µM
Screen size: about 360,000 compounds; about 7,500 (2.1%) were called active. Another 8% or so got no clear call; they are omitted. Calls follow the shape of the dose curve; as a rule, active = well fitted cell-killing curve with a large enough effect; inconclusive = small, poorly fitted or top-dose-only effect, or effect the other way, or another doubt; inactive = no such curve, though single readings can be large or run the other way. The sample as a whole holds a higher share of actives than the screen did.
Your response should consist of one outcome taken from 1.0 (active), 0.0 (inactive)

Answered cases to consult:
Ask: For this compound, state the assay outcome: O=C(CCc1ccccc1)NNc1ccc(F)cc1
Reply: 1.0

Ask: One more compound: CCOC(=O)N1C(=O)C[C@](Sc2ccc(C)cc2)(C(=O)OC)[C@H]1c1ccccc1
Reply: 0.0

Ask: One more compound: CC(=O)Nc1ccc(S(=O)(=O)NNC(=O)CCc2ccccc2)cc1
Reply: 0.0

Ask: One more compound: C[C@@H]1CN([C@H](C)CO)S(=O)(=O)c2ccc(C#CC3CCCCC3)cc2O[C@H]1CN(C)C(=O)Cc1ccncc1
Reply: 0.0

Ask: One more compound: CCCCc1ccc(S(=O)(=O)NC(=O)C2(C)CCN2C(=O)c2c(C)noc2C)cc1 (configuration not stated)
Reply: 0.0

Further cases:
Ask: For this compound, state the assay outcome: O=C(Nc1ccc2nc3n(c(=O)c2c1)CCCC3)c1ccc(Cl)nc1
Reply: 0.0

Ask: One more compound: CC(C)C[C@@H]1Cc2[nH][nH]c(=O)c2[C@H](CCc2ccccc2)O1
Reply: 0.0

====

- Assay Method Text: qHTS for induction of synthetic lethality in tumor cells producing 2HG: qHTS for the HT-1080-IDH1KD cell line
- Condition Context: HT-1080 IDH1 knockdown viability, ATP luminescence, 48 h; series mostly up to 46.1 µM
Screen size: about 360,000 compounds; about 7,500 (2.1%) were called active. Not shown: some 8% with an inconclusive outcome. Calls come from the whole dose curve; as a rule, active = well fitted cell-killing curve with a large enough effect; inconclusive = small, poorly fitted or top-dose-only effect, or effect the other way, or another doubt; inactive = no such curve, though single readings can be large or run the other way. This excerpt belongs to a sample that is enriched for actives.
Your response should consist of one outcome taken from 1 (yes) = active, 0 (no) = inactive

Answered cases to consult:
Ask: For this compound, state the assay outcome: O=C(Nc1cccc2ccccc12)c1[nH]c(-c2ccccc2)c2c1C(=O)N(C1CC1)C2=O
Reply: 0 (no)

Ask: One more compound: COc1ccccc1NC1=NC(c2ccc(Cl)cc2)N=C(N)N1 (configuration not stated)
Reply: 1 (yes)

Ask: One more compound: OCCN1CCN(c2ncnc3c2ncn3[C@H]2CN(Cc3ccco3)C[C@@H](CO)O2)CC1
Reply: 0 (no)

Further cases:
Ask: For this compound, state the assay outcome: O=S(=O)(NCc1cccnc1)c1ccc(Br)s1
Reply: 0 (no)

Ask: One more compound: CCN(CC)CCN(C)C(c1ccnc2ccccc12)c1nnnn1-c1ccc2c(c1)OCCO2 (configuration not stated)
Reply: 0 (no)

Ask: One more compound: OCCc1ccc(NCCc2ccco2)cc1
Reply: 0 (no)

Ask: One more compound: Cc1cc(C)nc(NS(=O)(=O)c2ccc(N3C(=O)C4CCCCC4C3=O)cc2)n1 (configuration not stated)
Reply: 0 (no)

Ask: One more compound: O=C(c1ccc(CS(=O)Cc2ccccc2Cl)o1)N1CCN(c2ccccc2)CC1 (configuration not stated)
Reply: 0 (no)

====

- Assay Method Text: qHTS for induction of synthetic lethality in tumor cells producing 2HG: qHTS for the HT-1080-IDH1KD cell line
- Condition Context: HT-1080 IDH1 knockdown viability, ATP luminescence, 48 h; series mostly up to 46.1 µM
Among all 360,000 compounds or so, about 7,500 (2.1%) were called active. Inconclusive results (about 8%) are left out. Calls follow the shape of the dose curve; as a rule, active = well fitted cell-killing curve with a large enough effect; inconclusive = small, poorly fitted or top-dose-only effect, or effect the other way, or another doubt; inactive = no such curve, though single readings can be large or run the other way. Shown is part of a subset that was picked to be rich in actives.
Your response should consist of one outcome taken from active, inactive

Answered cases to consult:
Ask: For this compound, state the assay outcome: O=C(Nc1ccccc1)c1ccccc1OCc1ccccc1
Reply: inactive

Ask: One more compound: CC/C(=N\NC(=S)NC(C)C)c1ccc(OC(F)F)cc1
Reply: inactive

Ask: One more compound: CCOc1ccc(-c2cc(C(=O)N/N=C/c3ccc(O)cc3)c3ccccc3n2)cc1
Reply: active

Ask: One more compound: COc1cc(/C=N/NC(=O)c2cc(-c3ccccc3C)nc3ccccc23)cc(OC)c1O
Reply: inactive

Further cases:
Ask: For this compound, state the assay outcome: Cc1c(C(=O)N/N=C/c2ccccc2)[nH]c2c([N+](=O)[O-])cccc12
Reply: active

Ask: One more compound: COc1cccc(/C=C2\C=C(c3ccc(C)cc3)OC2=O)c1OC(C)=O
Reply: inactive

Ask: One more compound: O=C(/C=C/c1cn(-c2ccccc2)nc1-c1ccc2c(c1)OCCO2)NCCCN1CCOCC1
Reply: active

====

- Assay Method Text: qHTS for induction of synthetic lethality in tumor cells producing 2HG: qHTS for the HT-1080-IDH1KD cell line
- Condition Context: HT-1080 IDH1 knockdown viability, ATP luminescence, 48 h; series mostly up to 46.1 µM
In all, about 360,000 compounds went through this assay and about 7,500 (2.1%) were called active. Roughly 8% stayed inconclusive and do not appear here. Calls come from the whole dose curve; as a rule, active = well fitted cell-killing curve with a large enough effect; inconclusive = small, poorly fitted or top-dose-only effect, or effect the other way, or another doubt; inactive = no such curve, though single readings can be large or run the other way. Shown is part of a subset that was picked to be rich in actives.
Your response should consist of one outcome taken from active, inactive

Answered cases to consult:
Ask: For this molecule, state the assay outcome: CC1(C(=O)NS(=O)(=O)Cc2cccc(Cl)c2)CCN1C(=O)Cc1ccc(Cl)cc1Cl (stereo not given)
Reply: inactive

Ask: One more molecule: Nc1c(-c2ccccc2)nnn1Cc1ccccc1
Reply: inactive

Ask: One more molecule: Oc1ccc(/C=N/Nc2nc(-c3ccccc3F)nc3ccccc23)c(O)c1
Reply: active

Further cases:
Ask: For this molecule, state the assay outcome: O=C(COc1cccc(Cl)c1)NCc1ccccc1
Reply: inactive

Ask: One more molecule: COc1ccc(Nc2cc(=O)oc3ccccc23)cc1
Reply: active

Ask: One more molecule: O=C(N/N=C\c1cccnc1)c1cc(-c2ccccc2)nc2c(Cl)cccc12
Reply: active

Ask: One more molecule: Nc1cccc(-c2cncc(N3CCN(Cc4ccccn4)CC3)n2)c1
Reply: inactive

Ask: One more molecule: CCOCCCn1c(NN)nc2ccccc2c1=O
Reply: inactive
